- subject_of_test: HNF4alpha8 (COS-7 nuclear extract) (Homo sapiens, UniProt P41235-5 1-452)
- Sequence: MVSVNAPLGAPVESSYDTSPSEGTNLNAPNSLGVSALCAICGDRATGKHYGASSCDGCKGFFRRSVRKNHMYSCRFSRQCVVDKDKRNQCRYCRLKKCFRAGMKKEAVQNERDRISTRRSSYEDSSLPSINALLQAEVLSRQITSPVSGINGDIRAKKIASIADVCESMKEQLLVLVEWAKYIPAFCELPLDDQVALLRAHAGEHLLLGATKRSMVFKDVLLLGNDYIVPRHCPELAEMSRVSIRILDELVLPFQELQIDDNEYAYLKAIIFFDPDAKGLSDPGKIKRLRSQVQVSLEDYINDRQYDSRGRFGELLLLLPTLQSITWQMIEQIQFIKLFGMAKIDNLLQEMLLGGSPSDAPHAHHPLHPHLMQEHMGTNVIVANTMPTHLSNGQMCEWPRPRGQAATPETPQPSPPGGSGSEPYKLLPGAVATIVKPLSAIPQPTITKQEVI
- assay_details: protein-binding microarray; COS-7 nuclear extract on double-stranded Agilent 4x180k PBM; binding buffer, salt, pH and temperature not given in the material; high values mean tight binding
- experimental_conditions: chain copies: 2; label: 3' end of strand 1 on the slide; dsDNA, one strand shown
The full ranking holds about 18,000 sequences; the median of “log2 normalized intensity” is about 0.36, and the highest 2% start at about 7.3. The full list was thinned out, with the highest values kept by preference.
Classification by binding signal | ranges: bottom bin: < 1 log2 normalized intensity; middle bin: ≥ 1 log2 normalized intensity and < 5 log2 normalized intensity; top bin: ≥ 5 log2 normalized intensity

Check out these entries, answers already filled in.
TCTTCAAGGAGGTGAACTTTGAGACTATCCGCCTAGGGAGATTAGAGTATCGGTCGA = top bin
AGCCCCAACCCACTGTTGCCCCTTCCAAAGGCCTAGGGAGATTAGAGTATCGGTCGA = middle bin
TTTGCTCACTGTAACCTTTGCCCCCCAAGTGCCTAGGGAGATTAGAGTATCGGTCGA = top bin

q: Band for the recorded binding signal of TGGTGCTATCTTTGCTCACTGTAACCTTTGGCCTAGGGAGATTAGAGTATCGGTCGA ?
a: middle bin

q: Please indicate the class for GCGGCATTCCTGTCAAAATCTGATCTTTCCGCCTAGGGAGATTAGAGTATCGGTCGA based on its binding signal.
a: middle bin

q: Input CCTAAAATTGACCTTTGATCACTCATGGGCGCCTAGGGAGATTAGAGTATCGGTCGA ; output its category
a: top bin
